- Experiment Notes: self-splicing fitness, log relative to wild type (ln ratio); higher = more splicing; Tetrahymena group I intron in knt gene, E. coli kanamycin selection, DiMSum; sequences stand for … in CUCUCU…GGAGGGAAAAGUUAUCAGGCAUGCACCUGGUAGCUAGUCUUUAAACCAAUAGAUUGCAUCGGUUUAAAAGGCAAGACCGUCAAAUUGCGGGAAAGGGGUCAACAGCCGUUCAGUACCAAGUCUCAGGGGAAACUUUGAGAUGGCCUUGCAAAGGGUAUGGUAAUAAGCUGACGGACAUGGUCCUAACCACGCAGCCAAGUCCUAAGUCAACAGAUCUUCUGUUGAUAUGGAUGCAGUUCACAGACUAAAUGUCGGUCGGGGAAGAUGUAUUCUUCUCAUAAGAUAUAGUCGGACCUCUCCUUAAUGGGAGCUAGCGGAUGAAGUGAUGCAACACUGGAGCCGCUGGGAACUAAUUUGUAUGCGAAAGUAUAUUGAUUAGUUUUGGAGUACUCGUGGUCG;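 further: selection with 25 µg/mL kanamycin versus none on LB agar overnight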
- Condition Info: 30 °C
# self-splicing fitness (ln) per record follows
Recorded Endpoint: self-splicing fitness (ln)

# Sequence Text, Recorded Endpoint, Readout Value
measured = [
    ("ACGGAGCAAUAUUACGACAU", "self-splicing fitness (ln)", -1.95),
    ("UAGAAGCAAUAUUACGGAAA", "self-splicing fitness (ln)", -2.02),
    ("UGCAAGCAAUAUUACGCACG", "self-splicing fitness (ln)", -2.14),
    ("AAGUAGCAAUAUUACGCAGC", "self-splicing fitness (ln)", -3.59),
    ("AACUAGCAAUAUUACGUCAA", "self-splicing fitness (ln)", -2.66),
    ("GGACAGCAAUAUUACGGUGU", "self-splicing fitness (ln)", -2.84),
    ("ACGGAGCAAUAUUACGAGGU", "self-splicing fitness (ln)", -2.12),
    ("GAGUAGCAAUAUUACGACUU", "self-splicing fitness (ln)", -3),
    ("AUAGAGCAAUAUUACGGUUC", "self-splicing fitness (ln)", -3.21),
    ("GUAGAGCAAUAUUACGCUUC", "self-splicing fitness (ln)", -3.16),
    ("CCUAAGCAAUAUUACGCGGA", "self-splicing fitness (ln)", -2.38),
    ("CGCCAGCAAUAUUACGGUCA", "self-splicing fitness (ln)", -0.14),
    ("CAGCAGCAAUAUUACGAGGA", "self-splicing fitness (ln)", -2.63),
    ("UCCCAGCAAUAUUACGAAGA", "self-splicing fitness (ln)", -0.348),
    ("AUGUAGCAAUAUUACGAAAG", "self-splicing fitness (ln)", -2.59),
    ("GUAUAGCAAUAUUACGGCAA", "self-splicing fitness (ln)", -0.453),
    ("ACCUAGCAAUAUUACGAGGA", "self-splicing fitness (ln)", -2.16),
    ("CGUUAGCAAUAUUACGCGAA", "self-splicing fitness (ln)", -3.36),
    ("GUCGAGCAAUAUUACGAUCC", "self-splicing fitness (ln)", -1.82),
    ("ACCUAGCAAUAUUACGCGCA", "self-splicing fitness (ln)", -0.569),
    ("AGUCAGCAAUAUUACGGAAC", "self-splicing fitness (ln)", -2.87),
    ("UCAAAGCAAUAUUACGUAAU", "self-splicing fitness (ln)", -4.1),
    ("CCGCAGCAAUAUUACGACGA", "self-splicing fitness (ln)", -0.105),
    ("UACAAGCAAUAUUACGCACC", "self-splicing fitness (ln)", -1.62),
    ("UCUGAGCAAUAUUACGAUUU", "self-splicing fitness (ln)", -2.65),
    ("GUCAAGCAAUAUUACGAGAG", "self-splicing fitness (ln)", -2.41),
    ("AUCGAGCAAUAUUACGUACC", "self-splicing fitness (ln)", -3.76),
    ("AUGAAGCAAUAUUACGCUGA", "self-splicing fitness (ln)", -1.2),
    ("UGGUAGCAAUAUUACGGUAU", "self-splicing fitness (ln)", -3.64),
    ("UCACAGCAAUAUUACGCAAG", "self-splicing fitness (ln)", -2.65),
    ("CGCCAGCAAUAUUACGCUGA", "self-splicing fitness (ln)", -3.51),
    ("GAAUAGCAAUAUUACGAUGU", "self-splicing fitness (ln)", -1.3),
    ("AAUAAGCAAUAUUACGCAGC", "self-splicing fitness (ln)", -3.5),
    ("AGGGAGCAAUAUUACGUACA", "self-splicing fitness (ln)", -2.14),
    ("UCAUAGCAAUAUUACGAAAC", "self-splicing fitness (ln)", -2.6),
    ("UUAUAGCAAUAUUACGGACU", "self-splicing fitness (ln)", -2.04),
    ("UUUCAGCAAUAUUACGGUAC", "self-splicing fitness (ln)", -1.9),
    ("GUACAGCAAUAUUACGUUUU", "self-splicing fitness (ln)", -3.88),
    ("AAUGAGCAAUAUUACGCCAC", "self-splicing fitness (ln)", -1.83),
    ("CAGAAGCAAUAUUACGUAGA", "self-splicing fitness (ln)", -3.54),
    ("AAGAAGCAAUAUUACGCAUU", "self-splicing fitness (ln)", -2.89),
    ("UAAGAGCAAUAUUACGUUGC", "self-splicing fitness (ln)", -2.74),
    ("GGGCAGCAAUAUUACGUAAC", "self-splicing fitness (ln)", -1.94),
    ("CUUAAGCAAUAUUACGAUGA", "self-splicing fitness (ln)", -3.04),
    ("AUAAAGCAAUAUUACGCACC", "self-splicing fitness (ln)", -0.896),
    ("ACAUAGCAAUAUUACGGUUC", "self-splicing fitness (ln)", -2.93),
    ("GCGCAGCAAUAUUACGCGCA", "self-splicing fitness (ln)", -4.09),
    ("UCGUAGCAAUAUUACGUAAG", "self-splicing fitness (ln)", -2.62),
    ("GACAAGCAAUAUUACGUUAA", "self-splicing fitness (ln)", -2.19),
    ("AUCGAGCAAUAUUACGCAGG", "self-splicing fitness (ln)", -3.53),
    ("GCCAAGCAAUAUUACGCAUC", "self-splicing fitness (ln)", -0.673),
]
